System: Zika virus NS2B-NS3 protease
assay.explanation: Primary screen GU AMC qHTS for Zika virus inhibitors (AID 1347154);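 also: 0% = no-inhibitor control and -100% = no-enzyme control; nearly all actives have a fitted effect of over 70% in size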
details: Zika NS2B-NS3 unlinked protease, AMC fluorogenic substrate; series mostly up to 54.1 µM
Records with an inconclusive call do not appear. The source made the active and inactive calls. Calls follow the shape of the dose curve; as a rule, active = well fitted inhibition curve with a large enough effect; inconclusive = small, poorly fitted or top-dose-only effect; inactive = flat fitted curve, though single readings scatter.
assay.endpoint: activity change, negative = inhibition

CCN(CC)CCNC(C(=O)OCCC(C)C)c1ccccc1 (stereo not given) ... inactive
NC(=O)c1ncn([C@@H]2O[C@H](CO)[C@@H](O)[C@H]2O)n1 ... inactive
CC1(C)S[C@@H]2[C@H](NC(=O)Cc3ccccc3)C(=O)N2[C@H]1C(=O)O (tested in a mixture with another compound) ... inactive
CN(C)CCN(Cc1ccccc1)c1ccccn1 ... inactive

Next molecule, please.
If you can, please state the reported activity change, negative = inhibition value of `C[C@@H]1CCN(C(=O)[C@H](CCCN=C(N)N)NS(=O)(=O)c2cccc3c2NC[C@H](C)C3)[C@@H](C(=O)O)C1` .
inactive

* * *

Tested on: HEK293
assay.explanation: Cytotoxic Profiling of Annotated Libraries Using Quantitative High-Throughput Screening (AID 1296008); also: nearly all actives have a fitted effect of over 60% in size; also: potency is read from the fitted curve at half-maximal effect
details: Five cell lines viability, CellTiter-Glo ATP luminescence, 48-72 h
Protocol: Cell-based phenotypic screening is a commonly used approach to discover biological pathways, novel drug targets, chemical probes and high-quality hit-to-lead molecules. […] A pintool (Kalypsys) was used to transfer 23 nL of compound solution to the 1536-well assay plates. […] Plates were left at room temperature for 10 min before imaging the ATP-coupled luminescence using a ViewLux microplate imager (PerkinElmer, Waltham, MA).
Records with an inconclusive call do not appear. The source made the active and inactive calls. The call rests on the fitted dose curve; in most records, active means well fitted inhibition curve with a large enough effect; inconclusive means small, poorly fitted or top-dose-only effect; inactive means flat fitted curve, though single readings scatter.
assay.endpoint: Potency

Example molecules with recorded Potency:
Cc1ccc2nc(N)[nH]c(=O)c2c1Sc1ccncc1 ... 8.2 µM (active)
OC[C@H]1O[C@@H](O[C@@H]2[C@@H](CO)O[C@](O)(CO)[C@H]2O)[C@H](O)[C@@H](O)[C@H]1O ... inactive
OCC(CO)N[C@H]1C[C@](O)(CO)[C@@H](O)[C@H](O)[C@H]1O ... inactive
O=c1[nH]cnc2c1ncn2[C@@H]1O[C@H](CO)[C@@H](O)[C@H]1O ... inactive
CC(C)(C)C(=O)C(Oc1ccc(Cl)cc1)n1ccnc1 (configuration not stated) ... inactive
CC(CN1c2ccccc2Sc2ccccc21)N(C)C (configuration not stated) ... 11.9 µM (active)
c1ccc2c(CC3=NCCN3)cccc2c1 ... inactive
O=C1NS(=O)(=O)c2ccccc21 ... inactive

Fill in Potency for each of the 4 molecules listed.
1. CSc1ccc2c(c1)C(N1CCN(C)CC1)Cc1ccccc1S2 (configuration not stated)
2. Oc1cccc(O)c1
3. O=C(O)COc1nn(Cc2ccccc2)c2ccccc12
4. O=C1c2c(O)cccc2Cc2cccc(O)c21

1. 16.8 µM (active)
2. inactive
3. inactive
4. inactive

* * *

target.of.assay: Nuclear receptor ROR-gamma (Homo sapiens)
assay.explanation: qHTS assay for small molecule antagonists of the retinoid-related orphan receptor gamma (ROR-gamma) signaling pathway (AID 651802); also: nearly all actives have a fitted effect of over 60% in size
details: ROR-gamma antagonist cell reporter assay; series mostly up to 92.2 µM
Inconclusive results are not listed. Active and inactive are the calls of the source. The call rests on the fitted dose curve; in most records, active means well fitted inhibition curve with a large enough effect; inconclusive means small, poorly fitted or top-dose-only effect; inactive means no such curve, though single readings can be large or run the other way.
Answer with one of the outcomes given here: yes (1) for active, no (0) for inactive

Cc1cc2nc3c(=O)[nH]c(=O)nc-3n(C[C@H](O)[C@H](O)[C@H](O)CO)c2cc1C ... no (0)
NCCNCCNCCNCCN ... no (0)
CC1(C)[C@@H]2CC[C@@]1(C)C(=O)C2 ... no (0)
CCCCOC(=O)c1ccc(O)cc1 ... no (0)
[Cl][In]([Cl])[Cl] ... no (0)
NCCNCCNCCN ... no (0)

# evaluate next
Test call, this compound: `Cc1c(O)cccc1C(=O)N[C@@H](CSc1ccccc1)[C@H](O)CN1C[C@H]2CCCC[C@H]2C[C@H]1C(=O)NC(C)(C)C`
yes (1)
